Each recorded value in this set is attributed to PubChem BioAssay (NCI).

# Test system: SNB-75 CNS
# experiment summary: NCI-60 one-dose screen, 48 h
# condition notes: 10 µM
The panel holds about 83,000 compounds, 20% with a hit somewhere; the sample as a whole holds those more often. Active and inactive are the calls of the source. Rule for the calls: active = growth percent below 10; inactive = the rest.
API: response.call in TRUE = active, FALSE = inactive

Example entries begin here.
1) COC(=O)c1cnc2c(c1)Oc1ccc(Cl)cc1-c1cc(C)nn1-2	FALSE
2) COc1ccc(-c2nc(-c3ccccc3)c(-c3ccccc3)[nH]2)cc1OC1CCCC1	FALSE
3) CCCCn1c(=O)[nH]c(N)c(C(c2ccc(Cl)cc2)c2c(N)[nH]c(=O)n(CCCC)c2=O)c1=O	FALSE

Hello, I am checking results. What call was entered for Cc1cc(C)c2c(Nc3ncnc4c3sc3nc(C)cc(C)c34)n[nH]c2n1 ?
FALSE

Let us now turn to C#Cc1ccc(-n2c(/C=C/c3cc(OC)c(OC)c(OC)c3)nc3ncccc3c2=O)cc1
FALSE

Let us now turn to Cc1ncc([N+](=O)[O-])n1CCOc1ccc(C(=O)/C=C/c2ccc(C(F)(F)F)cc2)cc1
FALSE

Let us now turn to COc1ccc(Cn2cc3c(c2-c2cc(OC)c(OC)c(OC)c2)CCc2cnoc2-3)cc1[N+](=O)[O-]
FALSE

Let us now turn to COCCOC(=O)NC(=O)Nc1ccc(C(=O)c2ccc(Cl)cc2)cc1
TRUE

Let us now turn to Cc1cc(/C=C2\SC(=Nc3ccccc3)N(C3CCCC3)C2=O)c(C)n1-c1ccc(Cl)cc1
TRUE

---

# Tested on: SNB-19 CNS
# experiment summary: NCI-60 one-dose screen, 48 h
# condition notes: 10 µM
About 83,000 compounds went through this panel and 20% of them were active in at least one assay; those are over-represented in the sample as a whole. Calls of active or inactive are those of the source. Rule for the calls: active = growth percent below 10; inactive = the rest.
API: response.call in active, inactive

Example entries begin here.
1) CC(=O)c1ccc(NCn2nc(-c3ccc(Cl)cc3)oc2=S)cc1	inactive
2) CCOC(=O)c1cc2c(n1Cc1cccc(OC)c1)-c1oncc1CC2	inactive
3) O=S(=O)(NC1c2ccccc2Oc2ccccc21)c1ccccc1	inactive
4) O=C(O)CCCN1C(=O)NC2(C1=O)c1ccccc1-c1ccccc12	inactive

Hello, I am checking results. What call was entered for COc1cccc2c1O/C(=C\c1ncc([N+](=O)[O-])n1C)C2=O ?
active

Let us now turn to COc1ccc(-c2cc(=O)n(-c3nc4ccccc4[nH]3)[nH]2)cc1OC
inactive

Let us now turn to NCCNc1ccc2cc(-c3nc4ccccc4[nH]3)c(=O)oc2c1
inactive

Let us now turn to COc1ccc(-c2nc(NC(=O)CS(=O)(=O)c3ccc(F)cc3)sc2C)cc1
inactive

Let us now turn to CC(C)c1[nH]nc2c(NCc3ccc(-c4ccccn4)cc3)nc(SCCN(C)C)nc12
inactive

Let us now turn to Oc1cc(O)c(Br)cc1Br
inactive

Let us now turn to CC(Oc1ccc(Cl)cc1)c1ccccc1 (stereo unspecified)
inactive

---

# Tested on: RPMI-8226 leukemia
# experiment summary: NCI-60 one-dose screen, 48 h (100 = growth as untreated, 0 = no growth, -100 = all killed)
# condition notes: 10 µM
About 83,000 compounds went through this panel and 20% of them were active in at least one assay; those are over-represented in the sample as a whole.
Collected growth values appear next to each entry.
The figure you give is taken to be in %; do not add the unit.

1) CCCCC(=O)N(c1ccc(Nc2c3ccccc3nc3cc([N+](=O)[O-])ccc23)cc1)S(C)(=O)=O	35
2) CCCCN(CCCC)c1ccc(C(=NC(C)CCCN(CC)CC)c2ccc(N(C)C)cc2)cc1 (stereo not given)	-43.6
3) CCOC(=O)c1c(O)c2cc(-c3ccccc3)nc(OCC)c2c(=O)n1C	39.2
4) Cc1ccc([P+](Cc2ccc([N+](=O)[O-])cc2)(c2ccc(C)cc2)c2ccc(C)cc2)cc1	-25.3

Fill in: growth of CCCCCCCOc1cccc(/C=C2/C(=O)N=C3SCCCN32)c1 is ___
40.8

---

# Tested on: MOLT-4 leukemia
# experiment summary: NCI-60 one-dose screen, 48 h (100 = growth as untreated, 0 = no growth, -100 = all killed)
# condition notes: 10 µM
The panel holds about 83,000 compounds, 20% with a hit somewhere; the sample as a whole holds those more often.
Collected growth values appear next to each entry.
The figure you give is taken to be in %; do not add the unit.

1. Cc1c(C(=O)N[C@H](CO)Cc2ccccc2)[nH]c2ccc(Cl)cc2c1=O	92.2
2. COc1ccc(-c2nc(NC(=O)CS(=O)(=O)c3ccc(F)cc3)sc2C)cc1	35.5
3. N#Cc1ccc(-n2cnc(NC(=O)[C@H]3CCN(C#N)C3)c2)cc1	9.28
4. COc1ccc(S(=O)(=O)Nc2ccc(OCc3nnc(-c4ccc(Cl)cc4)o3)c(F)c2)cc1	36

Could you now look at the following compound, please?
Fill in: growth of COc1ccc(C(=O)n2nc(CC(=O)NCc3ccccc3)nc2N)cc1 is ___
89.8

---

# System: CCRF-CEM leukemia
# experiment summary: NCI-60 one-dose screen, 48 h (100 = growth as untreated, 0 = no growth, -100 = all killed)
# condition notes: 10 µM
The panel holds about 83,000 compounds, 20% with a hit somewhere; the sample as a whole holds those more often.
Collected growth values appear next to each entry.
The figure you give is taken to be in %; do not add the unit.

Example compounds with recorded growth:
1. COc1cccc2c1C(=O)c1c(O)c3c(c(O)c1C2=O)C[C@@](O)(C(=O)COC(=O)c1cccnc1)C[C@@H]3OC1CC(N)C(O)C(C)O1 (some centres not stated)	0.652
2. CC(=O)Nc1nc(C)c(C(=O)NNC=O)s1	101
3. CCCCn1c(=O)[nH]c(N)c(C(c2ccc(Cl)cc2)c2c(N)[nH]c(=O)n(CCCC)c2=O)c1=O	16.7
4. COc1nc2c(c(=O)[nH]1)C(c1ccc(Oc3ccnc4cc(Cl)ccc34)c(OC)c1)C=C(c1cc(OC)c(OC)c(OC)c1)N2 (configuration not stated)	87.4
5. O=C(CCc1ccccc1)N1CCN(C(=O)CCc2ccccc2)CC1	88.2

Could you now look at the following compound, please?
Fill in: growth of CCOC(=O)c1c(Cl)c2c(n1Cc1cccc(OC)c1)-c1oncc1CC2 is ___
15.8

---

# Tested on: U251 CNS
# experiment summary: NCI-60 one-dose screen, 48 h (100 = growth as untreated, 0 = no growth, -100 = all killed)
# condition notes: 10 µM
This is part of a sample that, as a whole, favours compounds with a hit. Of some 83,000 tested, about 20% had one in any assay.
measurement name: growth (%)
The figure you give is taken to be in %; do not add the unit.

1. O=C(Nc1ccc(OCc2nnc(-c3ccccc3)o2)c(F)c1)Nc1ccc(Cl)c(Cl)c1	50.5

Fill in: growth of C/C(=N/NC(=O)c1sc(=S)n(C)c1N)c1cc2cc(Cl)ccc2o1 is ___
97.5

Let us now turn to COc1ccc(S(=O)(=O)Nc2ccc(OCc3nnc(-c4ccc(Cl)cc4)o3)c(F)c2)cc1
68.4

Let us now turn to S=c1c2ncccc2c(-c2ccccn2)nn1Cc1ccccn1
95

Let us now turn to CS(=O)(=O)Nc1ccc(Nc2c3ccccc3nc3cc(Cl)ccc23)cc1
19.9

Let us now turn to Oc1[nH]c2ccccc2c1/C=c1/cc2c(c(-c3ccc(C(F)(F)F)cc3)n1)=Nc1ccccc1-2
60.1

---

# Tested on: A549/ATCC NSCLC
# experiment summary: NCI-60 one-dose screen, 48 h (100 = growth as untreated, 0 = no growth, -100 = all killed)
# condition notes: 10 µM
The panel holds about 83,000 compounds, 20% with a hit somewhere; the sample as a whole holds those more often.
Records here are stratified by growth; strata: group 1 = under 50%, group 2 = from 50% up to 90%, group 3 = 90% and over

1. Cc1nnc2c3nnc(-c4ccc(Cl)cc4)n3c3ccccc3n12	group 3
2. CC(=O)n1nc(C(=O)OC(C)(C)C)c2cc(F)c(F)cc21	group 3
3. O=c1ccc2nc(-c3ccccc3)nn(-c3ccccc3)c-2c1	group 2

Into which category would you place Oc1ccc(Cn2cc3c(c2-c2ccccc2)CCc2cnoc2-3)cc1 ?
group 2

Let us now turn to Cc1ccc2c(c1)-c1cc(C)nn1-c1ccc(C#N)cc1O2
group 2

Let us now turn to Clc1cc(Cl)c(Cl)c(-c2nc(-c3cccnc3)cs2)c1
group 2

Let us now turn to Cc1ncc([N+](=O)[O-])n1CCOc1ccc(C(=O)/C=C/c2ccc(C(F)(F)F)cc2)cc1
group 2

Let us now turn to COc1ccc(Cn2cc3c(c2-c2cc(OC)c(OC)c(OC)c2)CCc2cnoc2-3)cc1N
group 1

Let us now turn to Fc1ccc(Nc2ccnc(N3CCN(c4ccnc5cc(Cl)ccc45)CC3)n2)cc1
group 1

Let us now turn to CCn1nc(-c2ccc(C(=O)OC)cc2)nc2c(=O)n(C)c(=O)nc1-2
group 1

Let us now turn to COc1ccc(Nc2ccnc(N3CCN(c4ccnc5cc(Cl)ccc45)CC3)n2)cc1
group 1

Let us now turn to COc1ccc(OC)c([N+](=O)[O-])c1C=O
group 3

Let us now turn to CNC(=O)c1cc(Oc2ccc(NC(=O)Nc3ccc(Cl)c(OC(C)C)c3)c(F)c2)ccn1
group 1

Let us now turn to CNCCCNCCCN1C(=O)c2ccc3c4c(ccc(c24)C1=O)C(=O)N(CCCNCc1ccccc1OC)C3=O
group 1

Let us now turn to c1ccc(CC(NCCNC(Cc2ccccc2)c2ccccc2)c2ccccc2)cc1 (stereo unspecified)
group 1

Let us now turn to CC(C)/C=N/NC(N)=S
group 2

Let us now turn to CCOc1ccc2c(c1)CC[C@@H]1[C@@H]2CC[C@]2(C)[C@@H](O)[C@@H](O)C[C@@H]12
group 2

Let us now turn to O=NN(CC(=O)N/N=C/C=C\c1ccccc1)CC(=O)N/N=C/C=C/c1ccccc1
group 3

Let us now turn to COc1cc(OC)cc(-c2ccc(-c3ccc(C(=N)N)cn3)o2)c1
group 1

Let us now turn to CN(C1c2ccccc2Oc2ccccc21)S(=O)(=O)c1cc(Cl)ccc1Cl
group 2

Let us now turn to O=C(Nc1ccc(Oc2ccc(Nc3nc4ccccc4s3)cc2)cc1)Nc1ccc(Cl)c(Cl)c1
group 1

Let us now turn to CCCCNC(=O)Oc1ccc(/C(=C(\C)c2ccc(OC)cc2)c2ccc(OCCN3CCCCC3)cc2)cc1
group 1

Let us now turn to Cn1cnc([N+](=O)[O-])c1Sc1nnc(-c2ccccc2)c(-c2ccccc2)n1
group 3

Let us now turn to Cc1ccc(/C=C2\CN(Cc3cn(CCNc4ccnc5cc(Cl)ccc45)nn3)C/C(=C\c3ccc(C)cc3)C2=O)cc1
group 1

Let us now turn to Cc1ccc(C)c2c1sc1nc3n[nH]c(N)c3c(=N)n12
group 3

Let us now turn to C[N+]1=C(/C=C/c2ccc(I)cc2)C(C)(C)c2ccccc21
group 3

Let us now turn to c1ccc(C2CCCCC2)c(OCCCCCN2CCNCC2)c1
group 2
